Tested on: Trypanosoma cruzi
Test: Antitrypanosomal activity against Trypanosoma cruzi clone 14 epimastigotes on day 5
Type: functional, organism-based
Stated conditions: 120 h
Attribute measured: pIC50
Numbers only, as −log10 of the molar value.

## Input Field request: pIC50 | item: CC(C)NC(=N)c1ccc2nc(-c3sc(-c4nc5ccc(C(=N)NC(C)C)cc5[nH]4)c4c3OCCO4)[nH]c2c1.Cl.Cl
## Output 5.37
